Target: HLA-DR DRB1*0301 (DR3) (Homo sapiens, UniProt P01903+P01911, A100K/A102G/A103R/A169T/F55Y/I96L/K41T/L162R/M171V/P40S/Q125H/Q178H/Q39Y/R42S/S66N/T106N/T262R/W38E/Y61H)
Sequence (P01903 26-254 limits assumed, other chains not shown): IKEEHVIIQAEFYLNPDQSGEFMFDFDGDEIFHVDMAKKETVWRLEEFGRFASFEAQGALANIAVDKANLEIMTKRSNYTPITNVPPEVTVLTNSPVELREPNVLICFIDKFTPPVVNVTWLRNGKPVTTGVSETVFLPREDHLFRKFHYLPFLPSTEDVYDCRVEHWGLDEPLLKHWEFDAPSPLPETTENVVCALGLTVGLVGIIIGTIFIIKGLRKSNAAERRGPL
Experiment: biochemical
Format: binding
pIC50: −log10 of the molar value. No end group written: not given here.
Outcome label depends on pIC50 relative to 4: at/above gives met, below gives not met.

Study these solved cases before continuing.
# Query sequence, Class
rows = [
    ("LFFYRKSVWSKLQSI", "met"),
    ("YGAVVNLRKTVVNFP", "not met"),
    ("VGGVALLPRRGPRLGV", "not met"),
    ("LRAFQQLFLNTLSFV", "met"),
    ("SNLELLRISLLLIQS", "met"),
    ("RQEILDLWVYHTQGF", "met"),
]

# input for lookup
# input Determine whether this sequence has pIC50 no lower than 4: HQAISPRTLNGPGPGSPAIF
# output not met

Just for reference, patent US20060079453A1 is where these values come from.
